Target: Amyloid-beta precursor protein (Homo sapiens, UniProt P05067)
Sequence (P05067 whole entry, the tested form may be a part): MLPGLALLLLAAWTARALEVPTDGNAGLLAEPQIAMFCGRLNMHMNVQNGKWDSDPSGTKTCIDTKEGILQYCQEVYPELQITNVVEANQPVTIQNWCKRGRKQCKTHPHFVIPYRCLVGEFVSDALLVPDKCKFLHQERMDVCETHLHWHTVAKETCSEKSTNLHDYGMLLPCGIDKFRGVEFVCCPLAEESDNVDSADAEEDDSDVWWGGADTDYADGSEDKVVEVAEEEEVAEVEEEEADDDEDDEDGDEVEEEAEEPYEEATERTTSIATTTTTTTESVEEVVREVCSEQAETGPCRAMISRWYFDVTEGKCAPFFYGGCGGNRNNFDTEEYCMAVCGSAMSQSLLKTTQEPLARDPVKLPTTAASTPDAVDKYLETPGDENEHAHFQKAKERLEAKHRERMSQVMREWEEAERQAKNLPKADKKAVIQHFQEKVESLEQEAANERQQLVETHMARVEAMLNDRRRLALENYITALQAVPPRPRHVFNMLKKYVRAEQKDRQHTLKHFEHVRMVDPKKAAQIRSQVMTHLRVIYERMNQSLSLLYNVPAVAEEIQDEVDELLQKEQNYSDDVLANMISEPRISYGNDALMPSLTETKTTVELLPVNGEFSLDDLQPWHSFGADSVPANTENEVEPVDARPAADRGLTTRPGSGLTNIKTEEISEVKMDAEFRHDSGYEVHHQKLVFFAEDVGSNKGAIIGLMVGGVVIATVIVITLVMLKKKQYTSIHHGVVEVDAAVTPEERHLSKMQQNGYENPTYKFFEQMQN
Assay: Modulation of human wild-type APP695 expressed in SH-SY5Y cells assessed as increase in CTFalpha level at 3 uM measured after 24 hrs by Western blot analysis relative to chloroquine
Assay type: cell-based
# cutoff 1 applies to fold change (FC); >= gives TRUE, < gives FALSE

[Q] Hi, just wondering whether O=C(CN1CCCCC1)Nc1cc(CN2CCOCC2)cc(Nc2ccnc3cc(Cl)ccc23)c1 shows fold change (FC) of 1 or higher.
[A] FALSE

[Q] Is it the case that CCN(CC)Cc1cccc(Nc2ccnc3cc(Cl)ccc23)c1 has fold change (FC) reaching or exceeding 1?
[A] FALSE

[Q] Does O=C(NCCN1CCCCC1)c1cc(Nc2ccccc2CN2CCCCC2)cc(C(=O)NCCN2CCCCC2)c1 have a reported fold change (FC) of at least 1?
[A] TRUE

[Q] Is it the case that CN(C)CCN(C)Cc1cc(NC(=O)CN2CCCCC2)cc(Nc2ccnc3cc(Cl)ccc23)c1 has fold change (FC) reaching or exceeding 1?
[A] TRUE

[Q] Decide: fold change (FC) of Oc1c(CN2CCCC2)cc(Nc2ccnc3cc(Cl)ccc23)cc1CN1CCCC1 >= 1?
[A] FALSE

====

Target: Amyloid-beta precursor protein (Homo sapiens)
Test: Modulation of human wild-type APP695 expressed in SH-SY5Y cells assessed as increase in AICD level at 3 uM measured after 24 hrs by Western blot analysis relative to chloroquine
Type: cell-based
Provide the reported fold change (FC) of each item.

[Q] Please give the measured fold change (FC) for this compound: c1ccc(Nc2cc(CNCCN3CCCCC3)cc(CNCCN3CCCCC3)c2)c(CN2CCCCC2)c1
[A] 4

[Q] Entry under review: Oc1c(CN2CCCC2)cc(Nc2ccnc3cc(Cl)ccc23)cc1CN1CCCC1 . Reported fold change (FC)?
[A] 0.6

[Q] GET /values?readout=fold change (FC)&item= c1ccc(Nc2cc(CNCCN3CCCCC3)cc(CNCCN3CCCCC3)c2)c(CN2CCOCC2)c1
[A] 1.3

[Q] Value lookup for fold change (FC); key = O=C(NCCN1CCCCC1)c1cc(Nc2ccccc2CN2CCCCC2)cc(C(=O)NCCN2CCCCC2)c1
[A] 2.3

[Q] Fill in the blank: the reported fold change (FC) of CN1CCN(c2cc(Nc3ccnc4cc(Cl)ccc34)cc(N3CCN(C)CC3)c2)CC1 is ____.
[A] 1.1

[Q] Item under review: CCN(CC)Cc1cc(NCCN2CCCCC2)cc(Nc2ccnc3cc(Cl)ccc23)c1 . Reported fold change (FC)?
[A] 0.4

[Q] Which value of fold change (FC) has been reported for Clc1ccc2c(Nc3cc(CN4CCOCC4)cc(NCCN4CCCCC4)c3)ccnc2c1 in the records?
[A] 1.2

====

Biological target: Amyloid-beta precursor protein (Homo sapiens)
Experiment: Modulation of human wild-type APP695 expressed in SH-SY5Y cells assessed as inhibition of amyloid beta (1 to 40 residues) production measured after 24 hrs
Hi there, I'd appreciate the recorded pIC50 for every entry that follows.
FYI, pIC50 means -log10 of a concentration in mol per litre.

[Q] Look up pIC50 with Amyloid-beta precursor protein (Homo sapiens) for this molecule: c1ccc(Nc2cc(CNCCN3CCCCC3)cc(CNCCN3CCCCC3)c2)c(CN2CCCCC2)c1
[A] 5.34

[Q] Query for Amyloid-beta precursor protein (Homo sapiens): what pIC50 does the record show for O=C(CN1CCCCC1)Nc1cc(CN2CCOCC2)cc(Nc2ccnc3cc(Cl)ccc23)c1 ?
[A] 5.51

[Q] Give the reported pIC50 for O=C(NCCN1CCCCC1)c1cc(Nc2ccccc2CN2CCCCC2)cc(C(=O)NCCN2CCCCC2)c1 (system: Amyloid-beta precursor protein (Homo sapiens)).
[A] 5.39

[Q] Value wanted: pIC50 (Amyloid-beta precursor protein (Homo sapiens)) of entry CN(C)CCNCc1cc(NC(=O)CN2CCCCC2)cc(Nc2ccnc3cc(Cl)ccc23)c1
[A] 5.70

[Q] # get_value(readout= pIC50, system= Amyloid-beta precursor protein (Homo sapiens)) for CCN(CC)Cc1cc(NCCN2CCCCC2)cc(Nc2ccnc3cc(Cl)ccc23)c1
[A] 5.00

[Q] Give the reported pIC50 for CCN(CC)Cc1cccc(Nc2ccnc3cc(Cl)ccc23)c1 (system: Amyloid-beta precursor protein (Homo sapiens)).
[A] 5.35

[Q] # value lookup — system Amyloid-beta precursor protein (Homo sapiens), readout pIC50, item CN(C)CCN(C)Cc1cc(NC(=O)CN2CCCCC2)cc(Nc2ccnc3cc(Cl)ccc23)c1
[A] 5.77
